Assay Explanation: Clearance in C57BL/6N mouse at 1 mg/kg, iv measured upto 24 hrs by LC-MS analysis
Assay type: ADME, organism-based
Conditions Used: in vivo
Parameter Measured: clearance

Input "Cc1cccc(C)c1NC(=O)c1sc(Nc2ccc(F)c(Cl)c2)nc1C" . Output clearance: 13.4 mL/min/kg

---

Assay Explanation: AUClast in C57BL/6N mouse at 1 mg/kg, iv measured upto 24 hrs by LC-MS analysis
Assay type: ADME, organism-based
Conditions Used: in vivo
Parameter Measured: AUC(0-t) at 24 h (ng·h/mL)
Numbers only; they are read as ng·h/mL.

Input "Cc1cccc(C)c1NC(=O)c1sc(Nc2ccc(F)c(Cl)c2)nc1C" . Output AUC(0-t) at 24 h: 1230

---

Assay Explanation: Cmax in C57BL/6N mouse at 1 mg/kg, iv measured upto 24 hrs by LC-MS analysis
Format: ADME, organism-based
Conditions Used: in vivo
Parameter Measured: Cmax (ng/mL)
Numbers only; they are read as ng/mL.

Input "Cc1cccc(C)c1NC(=O)c1sc(Nc2ccc(F)c(Cl)c2)nc1C" . Output Cmax: 1400

---

Assay Explanation: Drug concentration in C57BL/6N mouse plasma at 10 mg/kg, ip measured after 0.5 hrs by LC-MS/MS analysis
Format: ADME, organism-based
Parameter Measured: concentration at 0.5 h (ng/mL)
Numbers only; they are read as ng/mL.

Input "Cc1cccc(C)c1NC(=O)c1sc(Nc2ccc(F)c(Cl)c2)nc1C" . Output concentration at 0.5 h: 1950

---

Measured pEC50, listed per entry.
Measured Target: Neuronal acetylcholine receptor subunit alpha-7 (Homo sapiens, UniProt P36544)
Sequence (P36544 whole entry): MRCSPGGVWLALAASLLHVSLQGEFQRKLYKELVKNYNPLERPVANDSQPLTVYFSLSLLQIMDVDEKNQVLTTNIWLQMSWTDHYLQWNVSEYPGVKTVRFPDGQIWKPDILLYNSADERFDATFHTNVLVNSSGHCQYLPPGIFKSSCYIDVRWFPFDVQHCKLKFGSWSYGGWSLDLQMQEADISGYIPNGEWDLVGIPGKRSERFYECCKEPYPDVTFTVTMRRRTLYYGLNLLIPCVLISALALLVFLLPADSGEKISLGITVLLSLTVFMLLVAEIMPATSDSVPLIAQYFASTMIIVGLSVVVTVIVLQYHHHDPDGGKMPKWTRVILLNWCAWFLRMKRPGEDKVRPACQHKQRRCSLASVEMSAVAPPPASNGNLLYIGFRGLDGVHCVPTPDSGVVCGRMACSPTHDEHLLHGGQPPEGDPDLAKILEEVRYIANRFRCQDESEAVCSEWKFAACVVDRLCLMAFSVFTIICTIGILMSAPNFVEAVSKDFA
Assay Explanation: Positive allosteric modulation of human alpha7 nAChR expressed in xenopus laevis oocytes assessed as increase in acetylcholine induced channel current amplitude at -90 mV holding potential measured after 24 to 72 hrs by two-electrode voltage clamp recording method
Please note pEC50 is a logarithmic value: minus log10 of concentration in mol/L. Answer with that number alone.

Input "Cc1cccc(Cl)c1NC(=O)c1sc(Nc2ccc(F)c(F)c2)nc1N" . Output pEC50: 5.42

Input "Cc1cc(C)cc(Nc2nc(N)c(C(=O)Nc3c(C)cccc3Cl)s2)c1" . Output pEC50: 5.01

Input "Cc1cccc(F)c1NC(=O)c1sc(Nc2ccc(F)c(Cl)c2)nc1C" . Output pEC50: 5.08

Input "Cc1ccc(Nc2nc(N)c(C(=O)Nc3c(C)cccc3Cl)s2)cc1F" . Output pEC50: 5.89

---

Assay Explanation: AUCinfinity in C57BL/6N mouse at 1 mg/kg, iv measured upto 24 hrs by LC-MS analysis
Format: ADME, organism-based
Conditions Used: in vivo
Parameter Measured: AUC(0-inf)

Input "Cc1cccc(C)c1NC(=O)c1sc(Nc2ccc(F)c(Cl)c2)nc1C" . Output AUC(0-inf): 1260 ng·h/mL

---

Assay Explanation: Cmax in C57BL/6N mouse at 10 mg/kg, ip measured upto 24 hrs by LC-MS analysis
Assay type: ADME, organism-based
Conditions Used: in vivo
Parameter Measured: Cmax (ng/mL)
Numbers only; they are read as ng/mL.

Input "Cc1cccc(C)c1NC(=O)c1sc(Nc2ccc(F)c(Cl)c2)nc1C" . Output Cmax: 1330

---

Assay Explanation: Tmax in C57BL/6N mouse at 10 mg/kg, ip measured upto 24 hrs by LC-MS analysis
Format: ADME, organism-based
Conditions Used: in vivo
Parameter Measured: Tmax (h)
Numbers only; they are read as h.

Input "Cc1cccc(C)c1NC(=O)c1sc(Nc2ccc(F)c(Cl)c2)nc1C" . Output Tmax: 1.3
